- Test system: D54 ERlucT glycosylation luciferase reporter, luminescence, 24 h
- assay.name: N-linked glycosylation inhibitors, luciferase reporter, dose response, D54 ERlucT cells, luminescence, cherry-picks (AID 624491);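 note: signal gain reflects blocked N-linked glycosylation of a luciferase reporter; actives raise luciferase signal so AC26 marks activators of the reporter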

[
  {
    "compound": "CC(=O)N1CCc2c(sc(NC(=O)c3ccc4c(c3)OCCO4)c2C#N)C1",
    "AC26": "1950 nM"
  },
  {
    "compound": "COc1ccc(-c2cc(C)no2)cc1S(=O)(=O)Nc1ccccc1",
    "AC26": "3740 nM"
  },
  {
    "compound": "CC(C)N(CC(=O)Nc1ccc(Cl)cc1C(F)(F)F)C(=O)CCl",
    "AC26": "14500 nM"
  },
  {
    "compound": "O=C(NCc1ccccc1)C1Cc2c(-c3cccc(F)c3)ccnc2O1 (centres undefined)",
    "AC26": "11.2 nM"
  },
  {
    "compound": "O=c1[nH]c(=O)n(C2CC(O)C(CO)O2)cc1I (centres undefined)",
    "AC26": "880 nM"
  },
  {
    "compound": "Cc1cc(NC(=O)NC(=O)c2ccccc2NC(=O)C(C)N)ccc1Oc1ncc(Br)cn1 (centres undefined)",
    "AC26": "1060 nM"
  },
  {
    "compound": "Nc1[nH]nc2nc(NCc3ccccc3)c3c(c12)CCN(Cc1ccccc1)C3",
    "AC26": "1030 nM"
  },
  {
    "compound": "NC(=O)CC(NC(=O)c1ccc(Br)cc1)c1ccc(NC2CCCCC2)c([N+](=O)[O-])c1 (centres undefined)",
    "AC26": "6020 nM"
  },
  {
    "compound": "Cn1cc(/C=N/n2cnc3scc(-c4ccc(Cl)cc4)c3c2=O)c2ccccc21",
    "AC26": "58.4 nM"
  },
  {
    "compound": "COc1ccccc1NC(=O)/C=C/c1ccc2c(c1)OCO2",
    "AC26": "3780 nM"
  },
  {
    "compound": "Cc1ccc(COc2cccc(/C=N/NC(=O)c3nnn(-c4nonc4N)c3C)c2)cc1",
    "AC26": "1160 nM"
  },
  {
    "compound": "COc1ccc2nc(C)cc(Nc3ccc(N4CCOCC4)cc3)c2c1",
    "AC26": "1260 nM"
  },
  {
    "compound": "CN(C)CCc1cc2c(c3c1ccc1ccccc13)OCO2",
    "AC26": "5320 nM"
  },
  {
    "compound": "COc1ccccc1N1CCN(c2ccc3c(c2)S(=O)(=O)c2cccc(C(=O)NCC4CC4)c2C3=O)CC1",
    "AC26": "4550 nM"
  },
  {
    "compound": "CC(=O)NC(c1cccc(F)c1)c1nc(-c2ccccc2C)cs1 (centres undefined)",
    "AC26": "502 nM"
  },
  {
    "compound": "COc1ccc(S(=O)(=O)NCc2ccccn2)cc1NC(=O)c1ccccc1",
    "AC26": "234 nM"
  },
  {
    "compound": "CC(=O)c1cccc(Nc2cc(C)nc3c(C)cccc23)c1",
    "AC26": "5870 nM"
  },
  {
    "compound": "CC(=O)c1ccc(Oc2cc(C)nc(-n3nc(C)cc3C)n2)cc1",
    "AC26": "726 nM"
  },
  {
    "compound": "Cc1ccc(-c2nc(N(C)C3CCN(C)CC3)c3ccccc3n2)cc1",
    "AC26": "4000 nM"
  },
  {
    "compound": "CCOc1cc(-c2c(C#N)c(N)nc3c2CCc2ccccc2-3)ccc1O",
    "AC26": "9010 nM"
  },
  {
    "compound": "Clc1ccc(CSc2cnnc3ccccc23)cc1Cl",
    "AC26": "13500 nM"
  },
  {
    "compound": "Cc1cccc(C(=O)Nc2cc(S(=O)(=O)N3CCOCC3)ccc2N2CCCC2)c1",
    "AC26": "173 nM"
  },
  {
    "compound": "CC(C)(C)OC(=O)[C@H](Cc1ccccc1)NC(=O)c1nc[nH]c1C(=O)N1CCc2ccccc2C1",
    "AC26": "3820 nM"
  },
  {
    "compound": "Cc1noc(C)c1COc1cccc(C(=O)OC(C)C(=O)Nc2ccc3c(c2)OCO3)c1 (centres undefined)",
    "AC26": "40.4 nM"
  },
  {
    "compound": "CN1C(=O)CSc2ccc(NC(=O)Nc3ccccn3)cc21",
    "AC26": "4260 nM"
  },
  {
    "compound": "CCN(CC)c1ccc(/C=N/n2nnnc2N)c(O)c1",
    "AC26": "3410 nM"
  },
  {
    "compound": "O=c1[nH]c(O)c(/C=C2/C=CC(c3cc(Cl)ccc3Cl)=N2)c(=O)[nH]1",
    "AC26": "2610 nM"
  },
  {
    "compound": "c1ccc(C2=Nn3c(nnc3-c3n[nH]c4c3CCC4)SC2)cc1",
    "AC26": "4020 nM"
  },
  {
    "compound": "COc1ccccc1CCC(=O)Nc1ccc2c(c1)c(=O)n(C)n2-c1cccs1",
    "AC26": "124 nM"
  },
  {
    "compound": "CCn1c2ccccc2c2cc(NC(=O)COC(=O)c3ccc(O)cc3)ccc21",
    "AC26": "5820 nM"
  },
  {
    "compound": "Cc1ccc(-n2nc(C)c(NC(=O)CCl)c2C)cc1",
    "AC26": "2210 nM"
  },
  {
    "compound": "COc1cc(-c2nc(-c3ccccc3)c(-c3cccs3)[nH]2)cc(OC)c1O",
    "AC26": "6100 nM"
  },
  {
    "compound": "CC(C)(C)n1nnnc1C(c1ccccc1)N1CCc2ccccc2C1 (centres undefined)",
    "AC26": "13900 nM"
  },
  {
    "compound": "COc1cc(N)ccc1Nc1c2ccccc2nc2ccccc12",
    "AC26": "70 nM"
  },
  {
    "compound": "COCCN(C(=O)CCl)C(C(=O)NC1CCCCC1)c1ccccc1C (centres undefined)",
    "AC26": "3340 nM"
  },
  {
    "compound": "COc1ccc(C=CC(=O)c2ccc3cc(OC)c(OC)cc3c2)cc1OC",
    "AC26": "2860 nM"
  },
  {
    "compound": "Cc1nnc2c(NC(C)C)nc3ccccc3n12",
    "AC26": "4090 nM"
  },
  {
    "compound": "CCN1C(=O)c2cccc3c(S(=O)(=O)Nc4ccccn4)ccc1c23",
    "AC26": "2870 nM"
  },
  {
    "compound": "COc1cc(/C=N/NC(=O)c2ccc(-c3ccccc3)cc2)cc(OC)c1OC",
    "AC26": "1350 nM"
  },
  {
    "compound": "CN(C)S(=O)(=O)c1ccc(N2CCCC2)c(C(=O)Nc2nc3ccccc3s2)c1",
    "AC26": "545 nM"
  },
  {
    "compound": "Cn1c(SCC(=O)Nc2cccc(F)c2)nc2c([nH]c3ccccc32)c1=O",
    "AC26": "5420 nM"
  },
  {
    "compound": "CCOC(=O)c1[nH]c(C)c(C(=O)N2CCc3ccccc32)c1C",
    "AC26": "133 nM"
  },
  {
    "compound": "COc1ccc(/C=N/NC(=O)c2sccc2OCc2ccc(F)cc2)cc1OC",
    "AC26": "1310 nM"
  },
  {
    "compound": "Cc1cccc(N2CCN(C(=O)c3cc(S(=O)(=O)N4CCCC4)cn3C)CC2)c1C",
    "AC26": "2050 nM"
  }
]
